Reported IC50 by item:
- Target of assay: STAT6 (SH2 domain) (Homo sapiens, UniProt P42226)
- Sequence (P42226 517-632 limits assumed): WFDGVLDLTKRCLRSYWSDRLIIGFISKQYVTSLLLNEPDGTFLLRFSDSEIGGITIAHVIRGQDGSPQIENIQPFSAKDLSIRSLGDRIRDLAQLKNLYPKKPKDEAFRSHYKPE
Peptide text beside a SMILES is read from it.
Respond with a number, then the unit of measure.

Consider the reported IC50 for these compounds:
CC[C@H](C)[C@H](NC(=O)[C@H](CC(C)C)NC(=O)[C@H](CC(=O)O)NC(=O)[C@H](CCC(N)=O)NC(=O)[C@H](Cc1ccccc1)NC(=O)[C@@H]1CCCN1C(=O)[C@H](CCCCN)NC(=O)[C@H](Cc1ccc(OP(=O)(O)O)cc1)NC(C)=O)C(N)=O [compound 1, Ac-pTyr-Lys-Pro-Phe-Gln-Asp-Leu-Ile-NH2] (HELM PEPTIDE1{[ac].[O=C([C@H](Cc1ccc(OP(=O)(O)O)cc1)N[*:1])[*:2]].K.P.F.Q.D.L.I.[am]}$$$$V2.0) | 2000 nM
CC(C)(C)[C@H](NC(=O)/C=C/c1ccc(OP(=O)(O)O)cc1)C(=O)N1CCC[C@H]1C(=O)N(c1ccccc1)c1ccc(I)cc1 [18a] | 40 nM

Below: the item to evaluate.
Param readout= IC50; system= STAT6 (SH2 domain) (Homo sapiens, UniProt P42226); entry= C/C(=C\C(=O)N[C@H](C(=O)N1CCCC1/C=C/CCc1ccccc1)C(C)(C)C)c1ccc(OP(=O)(O)O)cc1 (stereo partly drawn) [compound 25] ; returns value.
500 nM
